Target: T1, DLG1-1 PDZ (DLG1 PDZ1, residues 220-317) (human, UniProt Q12959 220-317)
T1 construct: not shown: His tag, N-terminal, kept
T1 sequence (Q12959 220-317): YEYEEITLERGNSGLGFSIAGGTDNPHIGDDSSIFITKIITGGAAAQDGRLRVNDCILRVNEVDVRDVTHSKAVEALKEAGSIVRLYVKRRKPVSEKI
Assay: fluorescence polarisation
Conditions: both partners purified
Recorded endpoint: Ki (µM)

[[record]]
binder = "EDETAL [A9V7Z4 peptide (EDETAL)]"
recorded_endpoint = "Ki"
experimental_value = 460

[[record]]
binder = "PNQSVV [TYRP1 peptide (PNQSVV)]"
recorded_endpoint = "Ki"
experimental_value = 46

[[record]]
binder = "QSSSEA [GAIP peptide (QSSSEA)]"
recorded_endpoint = "Ki"
experimental_value = 980

[[record]]
binder = "ESESKV [GIRK3 peptide (ESESKV)]"
recorded_endpoint = "Ki"
experimental_value = 350

